Assay: mn = molality of the nth substance listed, in mol/kg
Details: 293.15 K; 101 kPa; Liquid; m2 = 0

compound	mass density / kg/m3
C[S+](C)[O-] [dimethyl sulfoxide] + [Mn+2].[O-][Cl+3]([O-])([O-])[O-].[O-][Cl+3]([O-])([O-])[O-]	1100.22
C[S+](C)[O-] [dimethyl sulfoxide] + [Cu+2].[O-][Cl+3]([O-])([O-])[O-].[O-][Cl+3]([O-])([O-])[O-]	1100.23
C[S+](C)[O-] [dimethyl sulfoxide] + [Ni+2].[O-][Cl+3]([O-])([O-])[O-].[O-][Cl+3]([O-])([O-])[O-]	1100.22
CO [methanol] + [Ni+2].[O-][Cl+3]([O-])([O-])[O-].[O-][Cl+3]([O-])([O-])[O-]	791.169

====

Assay: mn = molality of the nth substance listed, in mol/kg
Conditions: 293.15 K; 101 kPa; Liquid; m2 = 0

molecule	output_unit	mass density
CO [methanol] + O=S(=O)([O-])C(F)(F)F.O=S(=O)([O-])C(F)(F)F.[Cu+2]	kg/m3	791.162
C[S+](C)[O-] [dimethyl sulfoxide] + [O-][Cl+3]([O-])([O-])[O-].[O-][Cl+3]([O-])([O-])[O-].[Zn+2]	kg/m3	1100.23
CO [methanol] + [Co+2].[O-][Cl+3]([O-])([O-])[O-].[O-][Cl+3]([O-])([O-])[O-]	kg/m3	791.172
C[S+](C)[O-] [dimethyl sulfoxide] + [Co+2].[O-][Cl+3]([O-])([O-])[O-].[O-][Cl+3]([O-])([O-])[O-]	kg/m3	1100.22

====

Experiment: mn = molality of the nth substance listed, in mol/kg
Conditions: 313.15 K; 101 kPa; Liquid; m2 = 0
# mass density values compiled below

compound	mass density (kg/m3)
C[S+](C)[O-] [dimethyl sulfoxide] + [Cu+2].[O-][Cl+3]([O-])([O-])[O-].[O-][Cl+3]([O-])([O-])[O-]	1080.12
C[S+](C)[O-] [dimethyl sulfoxide] + [Co+2].[O-][Cl+3]([O-])([O-])[O-].[O-][Cl+3]([O-])([O-])[O-]	1080.12
C[S+](C)[O-] [dimethyl sulfoxide] + [Ni+2].[O-][Cl+3]([O-])([O-])[O-].[O-][Cl+3]([O-])([O-])[O-]	1080.12
CO [methanol] + [Co+2].[O-][Cl+3]([O-])([O-])[O-].[O-][Cl+3]([O-])([O-])[O-]	772.214
CO [methanol] + O=S(=O)([O-])C(F)(F)F.O=S(=O)([O-])C(F)(F)F.[Cu+2]	772.2
C[S+](C)[O-] [dimethyl sulfoxide] + [Mn+2].[O-][Cl+3]([O-])([O-])[O-].[O-][Cl+3]([O-])([O-])[O-]	1080.12
C[S+](C)[O-] [dimethyl sulfoxide] + [O-][Cl+3]([O-])([O-])[O-].[O-][Cl+3]([O-])([O-])[O-].[Zn+2]	1080.12
CO [methanol] + [Ni+2].[O-][Cl+3]([O-])([O-])[O-].[O-][Cl+3]([O-])([O-])[O-]	772.189
